Measured pIC50 of individual entries
target: PIK3CA (human) (UniProt P42336); experiment: Assessment of PIK3CA Kinase Activity
Sequence (P42336 whole entry, looked up): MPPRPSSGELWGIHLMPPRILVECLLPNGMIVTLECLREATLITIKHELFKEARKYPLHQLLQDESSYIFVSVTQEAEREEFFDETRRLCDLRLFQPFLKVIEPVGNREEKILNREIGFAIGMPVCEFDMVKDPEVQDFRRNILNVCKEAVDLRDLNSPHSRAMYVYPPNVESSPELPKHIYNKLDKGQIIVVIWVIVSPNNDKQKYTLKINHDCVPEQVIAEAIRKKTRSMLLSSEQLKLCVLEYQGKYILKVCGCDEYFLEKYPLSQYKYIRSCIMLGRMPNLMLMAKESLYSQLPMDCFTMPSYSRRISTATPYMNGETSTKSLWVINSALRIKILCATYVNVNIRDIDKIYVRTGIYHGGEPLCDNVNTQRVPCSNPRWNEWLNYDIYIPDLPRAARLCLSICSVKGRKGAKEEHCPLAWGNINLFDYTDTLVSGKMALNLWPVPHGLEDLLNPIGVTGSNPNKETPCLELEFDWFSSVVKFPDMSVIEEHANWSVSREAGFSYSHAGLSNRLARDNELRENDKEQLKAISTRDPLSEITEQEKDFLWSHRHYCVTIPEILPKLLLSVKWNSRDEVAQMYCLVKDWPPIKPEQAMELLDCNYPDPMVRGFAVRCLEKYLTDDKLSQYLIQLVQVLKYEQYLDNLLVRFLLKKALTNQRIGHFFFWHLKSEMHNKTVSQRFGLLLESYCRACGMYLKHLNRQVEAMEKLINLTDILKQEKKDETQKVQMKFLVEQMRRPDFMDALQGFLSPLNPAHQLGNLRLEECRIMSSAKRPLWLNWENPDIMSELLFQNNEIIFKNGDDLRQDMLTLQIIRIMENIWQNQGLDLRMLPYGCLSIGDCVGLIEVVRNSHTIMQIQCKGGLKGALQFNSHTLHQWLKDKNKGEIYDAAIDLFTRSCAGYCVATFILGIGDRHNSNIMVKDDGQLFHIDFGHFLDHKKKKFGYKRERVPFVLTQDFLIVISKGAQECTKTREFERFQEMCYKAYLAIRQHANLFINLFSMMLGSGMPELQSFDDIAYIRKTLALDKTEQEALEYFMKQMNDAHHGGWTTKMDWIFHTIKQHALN
pIC50: −log10 of the molar value.

These solved cases illustrate the format of a correct answer.
C[C@H](Nc1cc(C(F)(F)F)nc(N)n1)c1cc2cccc(Cl)c2c(=O)n1-c1ccccc1
< 5.00
COc1cc(-c2cccc3cc([C@@H](C)Nc4nc(N)ncc4C#N)n(-c4ccccc4)c(=O)c23)ccn1
< 5.00
Cc1cc(N[C@@H](C)c2cc3cccc(Cl)c3c(=O)n2-c2ccccc2)nc(N)n1
< 5.00
Cc1ncc(-c2cccc3cc([C@H](C)Nc4nc(N)ncc4C#N)n(-c4ccon4)c(=O)c23)cn1
< 5.00

Data request: Entry `C[C@H](Nc1nc(N)ncc1C#N)c1cc2cccc(-c3cncc(O)c3)c2c(=O)n1-c1ccccc1` : reported pIC50 = ?
Data returned: > 7.00

Data request: Try `C[C@H](Nc1nc(N)ncc1S(C)(=O)=O)c1cc2cccc(Cl)c2c(=O)n1-c1ccccc1` next.
Data returned: < 5.00

Data request: Continue with `COc1cc(-c2cccc3cc([C@H](C)Nc4nc(N)ncc4-c4cnc(C)s4)n(-c4ccccc4)c(=O)c23)ccn1`
Data returned: 6.00 to 7.00

Data request: Request: `C[C@H](Nc1nc(N)ncc1C#N)c1cc2cccc(-c3ccnc(O)c3)c2c(=O)n1-c1ccccc1`
Data returned: < 5.00

###

molecular target: UniProtKB P42338; test: Assessment of PIK3CB Kinase Activity
Sequence (P42338 whole entry, looked up): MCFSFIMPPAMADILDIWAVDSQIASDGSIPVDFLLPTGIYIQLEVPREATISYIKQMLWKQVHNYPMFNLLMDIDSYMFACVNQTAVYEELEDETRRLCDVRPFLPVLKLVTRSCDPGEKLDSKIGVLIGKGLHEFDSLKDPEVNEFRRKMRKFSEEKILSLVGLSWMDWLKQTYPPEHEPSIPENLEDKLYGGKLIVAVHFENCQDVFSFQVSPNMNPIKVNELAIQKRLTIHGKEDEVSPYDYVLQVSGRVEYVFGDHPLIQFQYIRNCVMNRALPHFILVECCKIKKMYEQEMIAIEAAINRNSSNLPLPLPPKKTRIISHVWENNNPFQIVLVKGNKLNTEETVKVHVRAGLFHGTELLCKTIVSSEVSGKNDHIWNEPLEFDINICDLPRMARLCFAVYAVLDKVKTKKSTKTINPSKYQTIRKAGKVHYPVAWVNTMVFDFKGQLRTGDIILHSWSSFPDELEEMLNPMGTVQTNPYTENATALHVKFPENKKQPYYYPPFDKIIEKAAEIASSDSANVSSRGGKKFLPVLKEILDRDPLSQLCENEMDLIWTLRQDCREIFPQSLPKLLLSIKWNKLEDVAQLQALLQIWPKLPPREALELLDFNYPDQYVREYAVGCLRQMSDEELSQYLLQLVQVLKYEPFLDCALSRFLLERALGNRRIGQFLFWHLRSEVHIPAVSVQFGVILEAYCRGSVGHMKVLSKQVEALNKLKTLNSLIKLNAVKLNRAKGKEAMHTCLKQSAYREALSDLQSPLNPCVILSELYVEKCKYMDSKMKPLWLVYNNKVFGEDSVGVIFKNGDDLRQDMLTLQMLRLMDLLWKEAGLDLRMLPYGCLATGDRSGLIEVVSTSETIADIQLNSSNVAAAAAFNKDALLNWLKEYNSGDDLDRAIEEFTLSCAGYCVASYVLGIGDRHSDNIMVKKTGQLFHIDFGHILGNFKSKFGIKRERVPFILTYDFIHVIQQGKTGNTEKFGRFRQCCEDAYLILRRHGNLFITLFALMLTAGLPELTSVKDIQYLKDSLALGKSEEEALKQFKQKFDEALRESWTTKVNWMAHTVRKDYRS
pIC50: −log10 of the molar value.
Each entry below carries its reported pIC50.

COc1cc(-c2cccc3cc([C@H](C)Nc4nc(N)ncc4-c4cccnc4)n(-c4ccccc4)c(=O)c23)ccn1
< 5.00
Cc1ncc(-c2cnc(N)nc2N[C@@H](C)c2cc3cccc(Cl)c3c(=O)n2-c2ccccc2)s1
6.00 to 7.00
C[C@H](Nc1nc(N)ncc1C#N)c1cc2cccc(-c3cnc4[nH]ccc4c3)c2c(=O)n1-c1ccccc1
6.00 to 7.00
C[C@H](Nc1nc(N)ncc1-c1ccccc1)c1cc2cccc(Cl)c2c(=O)n1-c1ccccc1
< 5.00
C=CS(=O)(=O)Nc1cccc(-c2cnc(N)nc2N[C@@H](C)c2cc3cccc(Cl)c3c(=O)n2-c2ccccc2)c1
6.00 to 7.00

Kindly review the next molecule as well.
Data request: What measured pIC50 is associated with `C[C@H](Nc1cc(C(F)(F)F)nc(N)n1)c1cc2cccc(Cl)c2c(=O)n1-c1ccccc1` on UniProtKB P42338?
Data returned: < 5.00

###

Measured pIC50, listed per entry for reference.
molecular target: PIK3CB (Human); assay: Assessment of PIK3CB Kinase Activity in 786-O Cells
pIC50: −log10 of the molar value.

Observe how each entry below is paired with its result.
CC(C)n1c([C@H](C)Nc2nc(N)ncc2C#N)cc2cccc(-c3ccc(=O)n(C)c3)c2c1=O
6.00 to 7.00
CC(C)n1c([C@H](C)Nc2ncnc(N)c2C#N)cc2cccc(-c3ccc(=O)n(C)c3)c2c1=O
6.00 to 7.00
COc1nc(-c2cnc(N)nc2N[C@@H](C)c2cc3cccc(-c4ccc(=O)n(C)c4)c3c(=O)n2-c2ccccc2)cs1
< 5.00

Data request: Under PIK3CB (Human): pIC50 value of `COc1ncc(-c2cccc3cc([C@H](C)Nc4nc(N)ncc4C#N)n(-c4ccccc4)c(=O)c23)cn1` ?
Data returned: < 5.00

###

molecular target: PIK3CB (Human); assay: Assessment of PIK3CB Kinase Activity
Value kind: IC50

Example compounds with recorded IC50:
COc1cc(-c2cccc3cc([C@H](C)Nc4nc(N)ncc4-c4cc(O)cc(F)c4)n(-c4ccccc4)c(=O)c23)ccn1
> 10000 nM
C[C@H](Nc1nc(N)ncc1C#N)c1cc2cccc(Cl)c2c(=O)n1-c1ccccc1
< 100 nM
C[C@H](Nc1nc(N)ncc1C#N)c1cc2cccc(Cl)c2c(=O)n1-c1ccccc1F
100 to 1000 nM
C[C@H](Nc1nc(N)ncc1C#N)c1nc2cccc(Cl)c2c(=O)n1-c1ccccc1
100 to 1000 nM

Now for another entry.
Data request: GET /values?readout=IC50&system=PIK3CB (Human)&item= `COc1ncc(-c2cccc3cc([C@H](C)Nc4nc(N)ncc4C(N)=O)n(-c4ccccc4)c(=O)c23)cn1`
Data returned: > 10000 nM

###

Parameter 'readout' = pIC50; parameter 'system' = PIK3CG (human).
pIC50: −log10 of the molar value.

Example entries and their recorded answers appear below.
Cc1cc(N[C@@H](C)c2cc3cccc(Cl)c3c(=O)n2-c2ccccc2)nc(N)n1
< 5.00
C[C@H](Nc1nc(N)ncc1C(=O)N(C)C)c1cc2cccc(-c3cnn(C)c3)c2c(=O)n1-c1ccccc1
> 7.00
C[C@H](Nc1nc(N)ncc1C#N)c1cc2cccc(-c3ccc(=O)n(C)c3)c2c(=O)n1-c1ccon1
6.00 to 7.00
CNS(=O)(=O)c1cccc(-c2cnc(N)nc2N[C@@H](C)c2cc3cccc(Cl)c3c(=O)n2-c2ccccc2)c1
> 7.00
Cc1ncc(-c2cccc3cc([C@H](C)Nc4nc(N)ncc4C#N)n(-c4cccc(F)c4)c(=O)c23)cn1
> 7.00
COc1cc(-c2cccc3cc([C@H](C)Nc4nc(N)ncc4[N+](=O)[O-])n(-c4ccccc4)c(=O)c23)ccn1
> 7.00

Data request: Which pIC50 is reported for this compound? `COc1cc(-c2cccc3cc([C@H](C)Nc4nc(N)ncc4-c4ccc(O)c(F)c4)n(-c4ccccc4)c(=O)c23)ccn1`
Data returned: > 7.00

Data request: Next up: `CC(C)n1c([C@H](C)Nc2ncnc(N)c2C#N)cc2cccc(Cl)c2c1=O`
Data returned: 6.00 to 7.00

###

molecular target: UniProt O00329; test: Assessment of PIK3CD Kinase Activity
Sequence (O00329 whole entry, looked up): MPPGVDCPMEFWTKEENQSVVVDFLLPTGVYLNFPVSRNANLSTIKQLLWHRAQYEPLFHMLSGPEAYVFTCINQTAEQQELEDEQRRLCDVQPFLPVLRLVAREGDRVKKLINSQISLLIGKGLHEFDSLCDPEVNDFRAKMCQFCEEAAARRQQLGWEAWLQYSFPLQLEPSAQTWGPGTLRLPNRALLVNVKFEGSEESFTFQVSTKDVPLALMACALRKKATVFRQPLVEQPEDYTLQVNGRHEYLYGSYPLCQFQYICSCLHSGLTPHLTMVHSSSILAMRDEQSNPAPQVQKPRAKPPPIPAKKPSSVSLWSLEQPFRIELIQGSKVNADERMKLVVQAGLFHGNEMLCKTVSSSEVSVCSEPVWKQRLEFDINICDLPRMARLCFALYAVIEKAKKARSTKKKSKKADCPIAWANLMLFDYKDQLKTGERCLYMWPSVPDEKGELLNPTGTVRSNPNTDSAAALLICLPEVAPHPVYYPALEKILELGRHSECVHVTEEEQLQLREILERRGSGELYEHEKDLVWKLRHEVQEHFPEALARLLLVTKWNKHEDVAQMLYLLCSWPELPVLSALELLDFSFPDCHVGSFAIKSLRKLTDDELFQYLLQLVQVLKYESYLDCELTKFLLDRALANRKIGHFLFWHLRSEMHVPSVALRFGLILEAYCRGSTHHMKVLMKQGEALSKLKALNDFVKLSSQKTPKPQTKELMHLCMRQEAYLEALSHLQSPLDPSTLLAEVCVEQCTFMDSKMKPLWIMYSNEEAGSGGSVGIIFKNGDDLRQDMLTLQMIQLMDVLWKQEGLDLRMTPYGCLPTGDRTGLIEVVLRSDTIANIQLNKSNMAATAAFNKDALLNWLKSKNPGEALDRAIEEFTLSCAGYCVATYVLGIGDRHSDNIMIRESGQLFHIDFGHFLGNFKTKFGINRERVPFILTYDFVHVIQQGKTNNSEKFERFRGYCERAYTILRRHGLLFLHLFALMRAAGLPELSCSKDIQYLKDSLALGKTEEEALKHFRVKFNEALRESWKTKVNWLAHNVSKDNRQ
pIC50: −log10 of the molar value.
Recorded measurements of pIC50, one per entry

// worked examples, pIC50 included
CC(C)n1c([C@H](C)Nc2nc(N)ncc2C#N)cc2cccc(Cl)c2c1=O
> 7.00
COc1cc(-c2cccc3cc([C@H](C)Nc4nc(N)ncc4C(=O)N(C)OC)n(-c4ccccc4)c(=O)c23)ccn1
6.00 to 7.00
C[C@H](Nc1nc(N)ncc1-c1cccc(N(C)S(C)(=O)=O)c1)c1cc2cccc(Cl)c2c(=O)n1-c1ccccc1
6.00 to 7.00
COc1cc(-c2cccc3cc([C@H](C)Nc4nc(N)ncc4C(=O)NC4CC4)n(-c4ccccc4)c(=O)c23)ccn1
> 7.00
Cc1cc(-c2cccc3cc([C@H](C)Nc4nc(N)ncc4C#N)n(-c4cccc(F)c4)c(=O)c23)ccn1
> 7.00

Data request: Report pIC50 for `C[C@H](Nc1nc(N)ncc1C#N)c1cc2cccc(-c3cnc4[nH]ccc4c3)c2c(=O)n1-c1ccccc1` please.
Data returned: > 7.00

Data request: Ok, now `C[C@H](Nc1nc(N)ncc1C#N)c1cc2cccc(Cl)c2c(=O)n1-c1cccc(F)c1`
Data returned: > 7.00

Data request: Same again, this time with `C[C@H](Nc1nc(N)ncc1-c1cccc(NS(=O)(=O)N(C)C)c1)c1cc2cccc(Cl)c2c(=O)n1-c1ccccc1`
Data returned: > 7.00

Data request: Let us now turn to `COc1ncc(-c2cccc3cc([C@H](C)Nc4nc(N)ncc4C#N)n(-c4ccccc4)c(=O)c23)s1`
Data returned: > 7.00

Data request: Next record, please: `C[C@H](Nc1nc(N)ncc1C(=O)N(C)C)c1cc2cccc(Cl)c2c(=O)n1-c1ccccc1`
Data returned: > 7.00

Data request: Also need `CC(=O)Nc1cnc(N)nc1N[C@@H](C)c1cc2cccc(Cl)c2c(=O)n1-c1ccccc1` , thanks.
Data returned: < 5.00

Data request: Subsequent entry: `N#Cc1cnc(N)nc1NCc1cc2cccc(Cl)c2c(=O)n1-c1ccccc1`
Data returned: > 7.00

Data request: Further, for `COc1cc(-c2cccc3cc(CNc4nc(N)ncc4C#N)n(-c4ccccc4)c(=O)c23)ccn1` ?
Data returned: > 7.00

Data request: Same question, `COc1cc(-c2cccc3cc([C@H](C)Nc4nc(N)ncc4C(=O)O)n(-c4ccccc4)c(=O)c23)ccn1` this time
Data returned: < 5.00

Data request: Follow-up entry: `C[C@H](Nc1nc(N)ncc1-c1cccc(S(N)(=O)=O)c1)c1cc2cccc(Cl)c2c(=O)n1-c1ccccc1`
Data returned: 6.00 to 7.00

Data request: Please answer likewise for `C[C@H](Nc1nc(N)ncc1-c1cccc(S(=O)(=O)C2CC2)c1)c1cc2cccc(Cl)c2c(=O)n1-c1ccccc1`
Data returned: > 7.00

Data request: Again, but for `C[C@H](Nc1nc(N)ncc1C#N)c1cc2cccc(-c3cncc(S(C)(=O)=O)c3)c2c(=O)n1-c1ccccc1`
Data returned: > 7.00

###

biological target: PIK3CG (human) (UniProt P48736); assay: Assessment of PIK3CG Kinase Activity
Sequence (P48736 whole entry, looked up): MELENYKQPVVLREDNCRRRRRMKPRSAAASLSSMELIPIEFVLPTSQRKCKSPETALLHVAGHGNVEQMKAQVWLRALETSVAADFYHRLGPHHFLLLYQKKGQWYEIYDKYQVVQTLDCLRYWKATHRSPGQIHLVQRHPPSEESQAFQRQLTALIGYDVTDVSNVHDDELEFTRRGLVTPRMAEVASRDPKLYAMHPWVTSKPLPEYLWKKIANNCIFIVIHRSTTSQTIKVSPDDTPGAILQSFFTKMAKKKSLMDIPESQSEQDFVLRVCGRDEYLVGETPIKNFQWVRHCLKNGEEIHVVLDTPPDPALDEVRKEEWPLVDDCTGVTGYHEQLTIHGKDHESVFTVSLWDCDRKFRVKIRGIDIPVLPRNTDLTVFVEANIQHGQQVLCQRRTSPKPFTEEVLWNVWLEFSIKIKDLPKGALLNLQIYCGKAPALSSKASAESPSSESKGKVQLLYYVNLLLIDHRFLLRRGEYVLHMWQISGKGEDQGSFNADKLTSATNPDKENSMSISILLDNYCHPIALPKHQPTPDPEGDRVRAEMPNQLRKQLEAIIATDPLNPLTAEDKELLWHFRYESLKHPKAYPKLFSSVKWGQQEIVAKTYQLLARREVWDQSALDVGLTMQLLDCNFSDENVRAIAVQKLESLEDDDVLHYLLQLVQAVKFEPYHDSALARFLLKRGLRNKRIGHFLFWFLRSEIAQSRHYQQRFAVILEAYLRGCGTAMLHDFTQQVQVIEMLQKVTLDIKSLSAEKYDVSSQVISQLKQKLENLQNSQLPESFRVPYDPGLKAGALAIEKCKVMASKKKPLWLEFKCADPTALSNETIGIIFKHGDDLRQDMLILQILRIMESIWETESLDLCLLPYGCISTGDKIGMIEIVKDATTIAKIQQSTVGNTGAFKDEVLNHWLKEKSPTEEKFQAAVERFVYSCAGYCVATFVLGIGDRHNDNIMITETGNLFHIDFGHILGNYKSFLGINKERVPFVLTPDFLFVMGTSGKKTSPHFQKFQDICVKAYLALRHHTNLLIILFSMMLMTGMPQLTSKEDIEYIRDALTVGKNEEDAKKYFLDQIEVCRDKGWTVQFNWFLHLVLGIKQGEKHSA
# IC50 per entry

Check out these entries, answers already filled in.
CC#Cc1cccc2cc([C@H](C)Nc3nc(N)ncc3C#N)n(-c3ccccc3)c(=O)c12
< 100 nM
COc1cc(-c2cccc3cc([C@H](C)Nc4nc(N)ncc4C#N)n(-c4ccccc4)c(=O)c23)cnc1C
< 100 nM

Data request: Given the entry `Cc1ncc(-c2cccc3nc([C@H](C)Nc4nc(N)ncc4C#N)n(-c4ccccc4)c(=O)c23)cn1` , report its measured IC50.
Data returned: < 100 nM

Data request: What would you report for `COc1ncc(-c2cccc3cc([C@H](C)Nc4ncnc(N)c4C#N)n(-c4ccccc4)c(=O)c23)cn1` ?
Data returned: 100 to 1000 nM

Data request: Thanks! And `C[C@H](Nc1nc(N)ncc1NS(C)(=O)=O)c1cc2cccc(Cl)c2c(=O)n1-c1ccccc1` ?
Data returned: > 10000 nM

Data request: Then what about the compound `Cc1ccc(-c2cccc3cc([C@H](C)Nc4nc(N)ncc4C#N)n(-c4ccccc4)c(=O)c23)cc1` ?
Data returned: < 100 nM

Data request: Then this compound: `COc1cncc(-c2cccc3cc([C@H](C)Nc4nc(N)ncc4C#N)n(-c4ccccc4)c(=O)c23)n1`
Data returned: 100 to 1000 nM

Data request: What do you have for `C[C@H](Nc1nc(N)ncc1C#N)c1cc2cccc(-c3cncc(S(C)(=O)=O)c3)c2c(=O)n1-c1ccccc1` ?
Data returned: < 100 nM
